From: patent US9120749B2

test system: T47D cells; assay: Cell-based assay: anti-proliferative activity, Cell Counting Kit-8, 72 hours (T47D); conditions: Homo sapiens, T47D, 72 h
Counter-ions that a name gives are not always drawn.
IC50 vs 0.4 µM: less than gives criterion met; not less than gives criterion not met.

Exercise: In the record for CN1CCCC(n2cc(Nc3c(C(=O)C4CC4)cnc4ccc(-c5cc(Cl)c(O)c(Cl)c5)cc34)cn2)C1 (stereo not shown) [Example 703] , is IC50 less than 0.4 µM?
Solution: criterion met

Exercise: In the record for CCCC(=O)c1cnc2ccc(-c3cc(Cl)c(O)c(Cl)c3)cc2c1N[C@H]1CC[C@H](CN(C)C)CC1 [Example 605] , is IC50 less than 0.4 µM?
Solution: criterion met

Exercise: In the record for CNC[C@H]1CC[C@H](Nc2c(C(=O)C3CC3)cnc3ccc(-c4cc(Cl)c(O)c(Cl)c4)cc23)CC1 [Example 685] , is IC50 less than 0.4 µM?
Solution: criterion met

Exercise: In the record for CN(C)C1CCN(c2ccc(Nc3c(S(C)(=O)=O)cnc4ccc(-c5cc(Cl)c(O)c(Cl)c5)cc34)cn2)C1 (stereo not shown) [Example 906, hydrochloride] , is IC50 less than 0.4 µM?
Solution: criterion not met

Exercise: In the record for CCN(CC)C[C@H]1CC[C@H](Nc2c(C(C)=O)cnc3ccc(-c4cc(F)c(O)c(Cl)c4)cc23)CC1 [Example 794] , is IC50 less than 0.4 µM?
Solution: criterion met

Exercise: In the record for CCN(CC)CCO[C@H]1CC[C@H](Nc2c(C(C)=O)cnc3ccc(-c4cc(F)c(O)c(Cl)c4)cc23)CC1 [Example 869, hydrochloride] , is IC50 less than 0.4 µM?
Solution: criterion met

Exercise: In the record for Cc1cc(O)c(Cl)cc1-c1ccc2ncc(C(=O)C3CC3)c(N3CCC(CN(C)C)CC3)c2c1 [Example 448] , is IC50 less than 0.4 µM?
Solution: criterion not met

Exercise: In the record for O=C(c1cnc2ccc(-c3cc(Cl)c(O)c(Cl)c3)cc2c1N[C@H]1C[C@H]2CC[C@@H](C1)N2)C1CC1 [Example 580] , is IC50 less than 0.4 µM?
Solution: criterion met

Exercise: In the record for CC(=O)c1cnc2ccc(-c3cn[nH]c3)cc2c1N[C@H]1CC[C@H](CN(C)C)CC1 [Example 912, hydrochloride] , is IC50 less than 0.4 µM?
Solution: criterion not met

Exercise: In the record for COc1cc(-c2ccc3ncc(C(C)=O)c(N[C@H]4CC[C@H](CN5CCCC(N)C5)CC4)c3c2)cc(Cl)c1O (stereo partly shown) [Example 809, hydrochloride] , is IC50 less than 0.4 µM?
Solution: criterion not met

Exercise: In the record for COc1cc(-c2ccc3ncc(C(=O)C(C)C)c(Nc4ccc(CN(C)C)cc4)c3c2)cc(Cl)c1O [Example 640] , is IC50 less than 0.4 µM?
Solution: criterion not met

Exercise: In the record for COc1cc(-c2ccc3ncc(C(=O)C4CC4)c(Nc4ccc(CN5CCN(C)CC5)cc4)c3c2)ccc1O [Example 405] , is IC50 less than 0.4 µM?
Solution: criterion not met

Exercise: In the record for NC1CCCN(c2ccc(Nc3c(C(=O)C4CC4)cnc4ccc(-c5cc(F)c(O)c(F)c5)cc34)cn2)C1 (stereo not shown) [Example 725] , is IC50 less than 0.4 µM?
Solution: criterion met

Exercise: In the record for CC(=O)c1cnc2ccc(-c3cc(Cl)c(O)c(Cl)c3)cc2c1Nc1ccc(C(N)=O)cc1 [Example 545] , is IC50 less than 0.4 µM?
Solution: criterion not met
